Task for the reader: assign each of the following compounds its reported deltaS.
system.under.test: Protein argonaute-2 (Homo sapiens, UniProt Q9UKV8)
Sequence (Q9UKV8 whole entry, the tested form may be a part): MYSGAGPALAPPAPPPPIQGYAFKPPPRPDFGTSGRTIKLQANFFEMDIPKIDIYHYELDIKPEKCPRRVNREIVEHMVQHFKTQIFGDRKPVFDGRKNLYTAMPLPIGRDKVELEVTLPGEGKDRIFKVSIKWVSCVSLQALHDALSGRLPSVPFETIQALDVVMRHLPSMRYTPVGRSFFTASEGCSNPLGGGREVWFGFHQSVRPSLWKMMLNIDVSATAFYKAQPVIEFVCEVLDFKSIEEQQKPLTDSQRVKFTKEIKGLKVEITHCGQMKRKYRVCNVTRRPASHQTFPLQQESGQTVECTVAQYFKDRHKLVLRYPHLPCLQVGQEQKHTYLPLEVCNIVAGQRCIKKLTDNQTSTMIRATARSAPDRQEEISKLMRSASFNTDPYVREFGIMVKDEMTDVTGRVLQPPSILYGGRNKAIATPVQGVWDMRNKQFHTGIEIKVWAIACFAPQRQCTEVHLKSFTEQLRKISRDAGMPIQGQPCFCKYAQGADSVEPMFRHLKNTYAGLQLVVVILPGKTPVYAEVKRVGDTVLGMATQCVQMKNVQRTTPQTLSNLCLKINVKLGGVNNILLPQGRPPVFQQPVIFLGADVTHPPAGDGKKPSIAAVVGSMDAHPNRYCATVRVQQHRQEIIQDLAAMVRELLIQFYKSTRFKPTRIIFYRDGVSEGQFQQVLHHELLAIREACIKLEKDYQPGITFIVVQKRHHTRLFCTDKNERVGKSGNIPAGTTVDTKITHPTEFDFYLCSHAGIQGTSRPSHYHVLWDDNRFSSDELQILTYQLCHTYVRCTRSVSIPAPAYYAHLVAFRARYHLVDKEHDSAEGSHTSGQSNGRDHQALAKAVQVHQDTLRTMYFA
test.description: Binding affinity to human Argonaut protein 2 PAZ domain assessed as change in entropy by isothermal titration microcalorimetry
One number for each entry, in cal/mol.K.

# map each compound to its deltaS
1. Cc1cc(NS(=O)(=O)c2ccc(N)cc2)nc(C)n1 [SULFISOMIDINE]
2. O=c1ccn([C@@H]2O[C@H](COP(=O)(O)O)[C@@H](O)[C@H]2O)c(=O)[nH]1
3. Nc1ccc(S(N)(=O)=O)cc1

1. 19.2
2. 18.2
3. 15.7

Find the recorded deltaS belonging to `N=C(N)NS(=O)(=O)c1ccc(N)cc1` and report it.
15.6

====

system.under.test: Protein argonaute-2 (Homo sapiens, UniProt Q9UKV8)
measured.endpoint: Kd (µM)
One number for each entry, in µM.

Find the recorded Kd belonging to `[H]/N=C(/N)NS(=O)(=O)c1ccc(N)cc1` and report it.
49
